TEST_DETAILS: Intrinsic clearance in human hepatic microsomes
Assay type: in vitro ADME
EXPERIMENTAL_SETUP: predicted hepatic clearance from in vitro intrinsic clearance
PARAMETER_MEASURED: predicted CLhep, human (mL/min/kg)

[
  {
    "COMPOUND": "Cc1ccc(OC2CCN(c3ncnc4ccc(F)cc34)CC2)cn1 [17b]",
    "predicted CLhep, human [mL/min/kg]": 12
  },
  {
    "COMPOUND": "Cc1sc2ncnc(N3CCC(C(=O)N4CC[C@H](F)C4)CC3)c2c1C [11b]",
    "predicted CLhep, human [mL/min/kg]": 14
  },
  {
    "COMPOUND": "Cc1ccc(OC2CCN(c3ncnc4sc(C)c(C)c34)CC2)cn1 [14b]",
    "predicted CLhep, human [mL/min/kg]": 20
  },
  {
    "COMPOUND": "Cc1sc2ncnc(N3CCC(C(=O)N4CCCC4)CC3)c2c1C [11a]",
    "predicted CLhep, human [mL/min/kg]": 16
  }
]
